Recorded values, source patent US20260008760A1.

Listed compounds paired with reported pIC50
# target-system: DPP1 in HL-60 cells (Homo sapiens, UniProt P53634)
# Sequence (P53634 25-463): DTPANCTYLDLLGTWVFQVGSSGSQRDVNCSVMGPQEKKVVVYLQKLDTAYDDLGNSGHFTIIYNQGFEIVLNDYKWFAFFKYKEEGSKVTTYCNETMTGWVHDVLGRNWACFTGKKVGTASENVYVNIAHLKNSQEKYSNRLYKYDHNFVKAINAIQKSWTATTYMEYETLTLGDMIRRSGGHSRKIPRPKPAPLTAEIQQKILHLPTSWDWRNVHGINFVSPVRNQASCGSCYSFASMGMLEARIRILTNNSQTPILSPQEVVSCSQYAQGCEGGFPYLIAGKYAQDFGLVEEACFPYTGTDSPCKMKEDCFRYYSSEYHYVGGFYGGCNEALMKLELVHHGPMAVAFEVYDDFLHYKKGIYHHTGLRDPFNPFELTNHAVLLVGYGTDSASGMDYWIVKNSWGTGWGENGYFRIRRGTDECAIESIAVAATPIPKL
# assay-name: DPP1 Cell IC50 assay
# Assay type: cell-based
# Design: host or cells: HL-60 cells
# measurement-context: 60 min pre-incubation, H-Gly-Phe-AFC substrate, average of n runs, read-out: Avg. IC50 (DPP1 Cell IC50 value ranges)
# Description: Example 99. DPP1 Cell IC50 assay HL-60 cells (ATCC; Manassas, VA) were maintained in RPMI-1640 supplemented with 20% heat-inactivated FBS and 1× Antibiotic Antimycotic (Cytiva; Marlborough, MA). Media was changed every three to four days and cells were not allowed to exceed 1×10^6 cells per mL. Prior to assay, cells were collected by centrifugation at 500 rcf for 3 minutes, resuspended in PBS and counted. […]
pIC50: −log10 of the molar value.
measured-metric: pIC50

>>> print(df.to_string())
                                    compound  measured_metric         value
 0  N#C[C@H](Cc1ccc(-c2ccc3c(c2)N(C(N)=O)CCC3)cc1)NC(=O)[C@@H]1CNCCCO1            pIC50        < 8.60
 1  N#C[C@H](Cc1ccc(-c2ccc3c(c2)C[C@]2(CCN(c4nccs4)C2)OC3)cc1)NC(=O)[C@@H]1CNCCCO1            pIC50        < 8.60
 2  N#C[C@H](Cc1ccc(-c2ccc(S(=O)(=O)N3CCC3)cc2)cc1)NC(=O)[C@@H]1CNCCCO1            pIC50        < 8.60
 3  COC1CNC[C@@H](C(=O)N[C@H](C#N)Cc2ccc(-c3cc4c(C)nc(C)cn4c3)cc2F)OC1 (stereo partly shown)            pIC50  8.60 to 9.00
 4  N#C[C@H](Cc1ccc(-c2cc3ccncc3[nH]2)cc1)NC(=O)[C@@H]1CNCCCO1            pIC50        < 8.60
 5  Cc1cn2cc(-c3cc4sc(C[C@H](C#N)NC(=O)[C@@H]5CNCCCCO5)cc4s3)cc2c(C)n1 (single isomer, unassigned)            pIC50        < 8.60
 6  Cn1c(=O)ccc2ncc(-c3ccc(C[C@@H](C#N)NC(=O)[C@@H]4CNCCCO4)cc3)cc21            pIC50        < 8.60
 7  N#C[C@H](Cc1ccc(-c2ccc3c(c2)C2(CCNCC2)CC3=O)cc1)NC(=O)[C@@H]1CNCCCO1            pIC50        < 8.60
 8  CN1C(=O)C2(CCN(C3COC3)CC2)c2cc(-c3ccc(C[C@@H](C#N)NC(=O)[C@@H]4CNCCCO4)cc3)ccc21            pIC50        < 8.60
 9  CO[C@@H]1CCNC[C@@H](C(=O)N[C@H](C#N)Cc2ccc(-c3ccc4cnn(C)c4c3)cc2F)OC1            pIC50        > 9.00
10  C[C@@H]1NC[C@@H](C(=O)N[C@H](C#N)Cc2ccc(-c3ccc4c(c3)CCC(=O)N4C)cc2)OC[C@@H]1O            pIC50        < 8.60
11  N#C[C@H](Cc1ccc(-c2ccc3c(c2)[C@@]2(CCCN(C4CCCCC4)C2)CS3)cc1)NC(=O)[C@@H]1CNCCCO1            pIC50        < 8.60
12  CN1C(=O)C2(CCNCC2)c2cc(-c3ccc(C[C@@H](C#N)NC(=O)[C@@H]4CNCCCO4)cc3)ccc21            pIC50        < 8.60
13  Cc1cn2cc(-c3ccc(C[C@@H](C#N)NC(=O)[C@@H]4CNCCCCO4)c(F)c3)cc2c(C)n1            pIC50  8.60 to 9.00
14  N#C[C@H](Cc1ccc(-c2ccc3c(c2)[C@]2(CCN(C#N)C2)SC3)cc1)NC(=O)[C@@H]1CNCCCO1            pIC50        < 8.60
15  N#C[C@H](Cc1ccc(-c2cnc3c(c2)COCCN3)cc1)NC(=O)[C@@H]1CNCCCO1            pIC50        < 8.60
16  CO[C@H]1CCO[C@H](C(=O)N[C@H](C#N)Cc2ccc(-c3ccc4c(c3)CCC(=O)N4C)cc2F)CNC1            pIC50        > 9.00
17  COC1CNC[C@@H](C(=O)N[C@H](C#N)Cc2cnc(-c3ccc4c(F)nn(C)c4c3)s2)OC1 (stereo partly shown)            pIC50        > 9.00
18  CN1CCC2(CCc3cc(-c4ccc(C[C@@H](C#N)NC(=O)[C@@H]5CNCCCO5)cc4)ccc32)CC1            pIC50        < 8.60
19  N#C[C@H](Cc1ccc(-c2ccc3c(c2)CCNC3=O)cc1)NC(=O)[C@@H]1CNCCCO1            pIC50        < 8.60
20  CO[C@@H]1CCNC[C@@H](C(=O)NC(C#N)Cc2cc3cc(-c4cc5c(C)nc(C)cn5c4)ccc3s2)OC1 (single isomer, unassigned)            pIC50        < 8.60
21  CN1C(=O)CCc2cc(-c3ccc(C[C@@H](C#N)NC(=O)[C@@H]4CNCC[C@@H](F)CO4)cc3)ccc21            pIC50  8.60 to 9.00
22  CO[C@@H]1CCNC[C@@H](C(=O)N[C@H](C#N)Cc2ccc(-c3cc4c(C)nc(C)cn4c3)cc2)OC1            pIC50  8.60 to 9.00
23  N#C[C@H](Cc1ccc(NC(=O)c2csc(-c3cscn3)n2)cc1)NC(=O)[C@@H]1CNCCCO1            pIC50        < 8.60
24  N#C[C@H](Cc1cc2c(cc1F)-c1cc(C3COC3)c(F)cc1CO2)NC(=O)[C@@H]1CNCCCCO1            pIC50  8.60 to 9.00
25  COC1CNC[C@@H](C(=O)N[C@H](C#N)Cc2ccc(-c3ccc4c(c3)CCC(=O)N4C)cc2)OC1 (stereo partly shown)            pIC50        > 9.00
26  N#C[C@H](Cc1ccc(-c2ccc3c(c2)C2(CCN(c4nccs4)CC2)SC3)cc1)NC(=O)[C@@H]1CNCCCO1            pIC50        < 8.60
27  N#C[C@H](Cc1ccc(-c2nc3c(s2)CS(=O)(=O)CC3)cc1)NC(=O)[C@@H]1CNCCCO1            pIC50        < 8.60
